system-name: apelin receptor (APLNR; APJ), PathHunter eXpress (Homo sapiens, UniProt P35414)
Construct: full-length receptor with C-terminal ProLink (beta-galactosidase fragment) tag, stably expressed in CHO-K1 with enzyme-acceptor-tagged beta-arrestin-2
Sequence (P35414 1-380): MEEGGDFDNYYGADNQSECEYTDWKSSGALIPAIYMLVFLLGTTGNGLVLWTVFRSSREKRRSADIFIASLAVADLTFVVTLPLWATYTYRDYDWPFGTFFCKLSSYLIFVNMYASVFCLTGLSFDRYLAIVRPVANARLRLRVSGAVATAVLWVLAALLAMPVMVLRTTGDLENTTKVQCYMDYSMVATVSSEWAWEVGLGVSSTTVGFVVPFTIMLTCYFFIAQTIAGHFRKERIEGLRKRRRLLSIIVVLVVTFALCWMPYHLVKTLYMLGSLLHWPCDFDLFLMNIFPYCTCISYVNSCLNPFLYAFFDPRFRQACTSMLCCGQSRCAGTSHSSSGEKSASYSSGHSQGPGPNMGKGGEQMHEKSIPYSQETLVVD
assay-protocol: beta-arrestin-2 recruitment, enzyme complementation chemiluminescence, specific binding with Hill slope fit
protocol-conditions: agonist; apparent constant from functional response, not a radioligand; 1 h incubation; CHO-K1 cells; read-out: Kd
experimental-readout: pEC50
// pEC50: -log10(molar conc.)

What value of pEC50 has been reported for the following compound? Oc1cc(O)c2c(c1)O[C@H](c1ccc(O)c(O)c1)[C@H](O)C2 [EC, (-)-epicatechin] 11.76
